Please go through the items and note down their log10 Vmax.
biological target: R-ChHNL (Chamberlinius hualienensis); experiment: Dynamic (kinetic) analysis, aldehyde substrates, Hanes-Woolf plot; settings: aldehydes other than benzaldehyde; condition similar to the above-described condition
On a log10 scale: recorded Vmax, unit µmol/min/mg.

Please provide the recorded log10 Vmax for `COc1ccc(C=O)cc1` , tested on R-ChHNL (Chamberlinius hualienensis).
3.87

Please provide the recorded log10 Vmax for `Cc1ccccc1C=O` , tested on R-ChHNL (Chamberlinius hualienensis).
3.41

Please provide the recorded log10 Vmax for `O=Cc1ccc(Br)cc1` , tested on R-ChHNL (Chamberlinius hualienensis).
4.30

Please provide the recorded log10 Vmax for `O=Cc1cccs1` , tested on R-ChHNL (Chamberlinius hualienensis).
3.55

Please provide the recorded log10 Vmax for `Cc1ccc(C=O)c(C)c1` , tested on R-ChHNL (Chamberlinius hualienensis).
2.80

Please provide the recorded log10 Vmax for `COc1cccc(C=O)c1` , tested on R-ChHNL (Chamberlinius hualienensis).
3.51

Please provide the recorded log10 Vmax for `O=Cc1ccc2c(c1)OCO2` , tested on R-ChHNL (Chamberlinius hualienensis).
3.48

----------
target: R-ChHNL (Chamberlinius hualienensis, UniProt A0A0H5BR52); experiment: Dynamic (kinetic) analysis, aldehyde substrates, Hanes-Woolf plot; conditions: aldehydes other than benzaldehyde; condition similar to the above-described condition
Field: label. Allowed values: class 1 (Km < 6 mM) or class 0 (Km >= 6 mM).

Please let me know if O=Cc1ccc2c(c1)OCO2 [piperonal] shows Km below 6 mM.
class 1

Please let me know if O=Cc1cccs1 [2-thiophenecarboxaldehyde] shows Km below 6 mM.
class 0

Please let me know if Cc1ccccc1C=O [2-methylbenzaldehyde] shows Km below 6 mM.
class 1

Please let me know if COc1cccc(C=O)c1 [3-methoxybenzaldehyde] shows Km below 6 mM.
class 1

Please let me know if Cc1ccc(C=O)c(C)c1 [2,4-dimethylbenzaldehyde] shows Km below 6 mM.
class 1

Please let me know if O=Cc1ccc(Br)cc1 [4-bromobenzaldehyde] shows Km below 6 mM.
class 0

Please let me know if COc1ccc(C=O)cc1 [4-methoxybenzaldehyde] shows Km below 6 mM.
class 0

----------
biological target: R-ChHNL (Chamberlinius hualienensis, UniProt A0A0H5BR52); experiment: Dynamic (kinetic) analysis, aldehyde substrates, Hanes-Woolf plot; conditions: aldehydes other than benzaldehyde; relative to benzaldehyde at pH 5.2 and 22° C.
Reported Endpoint: relative S.A.
Answer with a bare number; do not write a unit.

What relative S.A. value was documented for this compound, `O=Cc1cccs1` ?
32.3

What relative S.A. value was documented for this compound, `Cc1ccccc1C=O` ?
32.2

What relative S.A. value was documented for this compound, `COc1ccc(C=O)cc1` ?
92.1

What relative S.A. value was documented for this compound, `O=Cc1ccc(Br)cc1` ?
233.8

What relative S.A. value was documented for this compound, `O=Cc1cccc2ccccc12` ?
4.4

What relative S.A. value was documented for this compound, `Cc1ccc(C=O)cc1` ?
149.0

What relative S.A. value was documented for this compound, `Cc1ccc(C=O)c(C)c1` ?
8.8

What relative S.A. value was documented for this compound, `O=Cc1ccc2c(c1)OCO2` ?
37.0

What relative S.A. value was documented for this compound, `Cc1cccc(C=O)c1` ?
170.3

What relative S.A. value was documented for this compound, `COc1cccc(C=O)c1` ?
44.7

----------
biological target: R-ChHNL (Chamberlinius hualienensis, UniProt A0A0H5BR52); experiment: Dynamic (kinetic) analysis, aldehyde substrates, Hanes-Woolf plot; details: aldehydes other than benzaldehyde; condition similar to the above-described condition
Reported Endpoint: log10 of kcat (log10 of the value in s⁻¹)
On a log10 scale: recorded kcat, unit s⁻¹.

Please provide the recorded log10 of kcat for `Cc1ccc(C=O)c(C)c1` , tested on R-ChHNL (Chamberlinius hualienensis, UniProt A0A0H5BR52).
2.42

Please provide the recorded log10 of kcat for `COc1cccc(C=O)c1` , tested on R-ChHNL (Chamberlinius hualienensis, UniProt A0A0H5BR52).
3.13

Please provide the recorded log10 of kcat for `Cc1ccccc1C=O` , tested on R-ChHNL (Chamberlinius hualienensis, UniProt A0A0H5BR52).
3.03

Please provide the recorded log10 of kcat for `O=Cc1ccc(Br)cc1` , tested on R-ChHNL (Chamberlinius hualienensis, UniProt A0A0H5BR52).
3.92

Please provide the recorded log10 of kcat for `COc1ccc(C=O)cc1` , tested on R-ChHNL (Chamberlinius hualienensis, UniProt A0A0H5BR52).
3.49

Please provide the recorded log10 of kcat for `O=Cc1cccs1` , tested on R-ChHNL (Chamberlinius hualienensis, UniProt A0A0H5BR52).
3.16

Please provide the recorded log10 of kcat for `O=Cc1ccc2c(c1)OCO2` , tested on R-ChHNL (Chamberlinius hualienensis, UniProt A0A0H5BR52).
3.10

----------
biological target: R-ChHNL (Chamberlinius hualienensis, UniProt A0A0H5BR52); test: Dynamic (kinetic) analysis, aldehyde substrates, Hanes-Woolf plot; conditions: aldehydes other than benzaldehyde; condition similar to the above-described condition
Reported Endpoint: max S.A. (specific activity) (U/mg)
Unit U/mg implied. Number only.

Please provide the recorded max S.A. (specific activity) for O=Cc1ccc2c(c1)OCO2 [piperonal] , tested on R-ChHNL (Chamberlinius hualienensis, UniProt A0A0H5BR52).
2748

Please provide the recorded max S.A. (specific activity) for Cc1cccc(C=O)c1 [3-methylbenzaldehyde] , tested on R-ChHNL (Chamberlinius hualienensis, UniProt A0A0H5BR52).
12657

Please provide the recorded max S.A. (specific activity) for O=Cc1cccs1 [2-thiophenecarboxaldehyde] , tested on R-ChHNL (Chamberlinius hualienensis, UniProt A0A0H5BR52).
2403

Please provide the recorded max S.A. (specific activity) for COc1cccc(C=O)c1 [3-methoxybenzaldehyde] , tested on R-ChHNL (Chamberlinius hualienensis, UniProt A0A0H5BR52).
3326

Please provide the recorded max S.A. (specific activity) for Cc1ccc(C=O)cc1 [4-methylbenzaldehyde] , tested on R-ChHNL (Chamberlinius hualienensis, UniProt A0A0H5BR52).
11072

Please provide the recorded max S.A. (specific activity) for Cc1ccc(C=O)c(C)c1 [2,4-dimethylbenzaldehyde] , tested on R-ChHNL (Chamberlinius hualienensis, UniProt A0A0H5BR52).
654

Please provide the recorded max S.A. (specific activity) for O=Cc1cccc2ccccc12 [1-naphthalenecarboxaldehyde] , tested on R-ChHNL (Chamberlinius hualienensis, UniProt A0A0H5BR52).
326

Please provide the recorded max S.A. (specific activity) for COc1ccc(C=O)cc1 [4-methoxybenzaldehyde] , tested on R-ChHNL (Chamberlinius hualienensis, UniProt A0A0H5BR52).
6849

Please provide the recorded max S.A. (specific activity) for O=Cc1ccc(Br)cc1 [4-bromobenzaldehyde] , tested on R-ChHNL (Chamberlinius hualienensis, UniProt A0A0H5BR52).
17375

Please provide the recorded max S.A. (specific activity) for Cc1ccccc1C=O [2-methylbenzaldehyde] , tested on R-ChHNL (Chamberlinius hualienensis, UniProt A0A0H5BR52).
2395

----------
biological target: R-ChHNL (Chamberlinius hualienensis, UniProt A0A0H5BR52); assay: Search of inhibitor of R-ChHNL activity (remaining activity); format: biochemical; conditions: concentration not given (1 mM or 0.1 mM); pH 7.0, 20° C., 60 minutes
Reported Endpoint: Remaining activity (%)
Unit % implied. Number only.

What Remaining activity value was documented for this compound, `O=[N+]([O-])[O-].[Ag+]` ?
68

What Remaining activity value was documented for this compound, CCN1C(=O)C=CC1=O [N-ethylmaleimide] ?
100

What Remaining activity value was documented for this compound, `NC(=S)Nc1ccccc1` ?
100

What Remaining activity value was documented for this compound, `O[C@@H](CS)[C@@H](O)CS` ?
100

What Remaining activity value was documented for this compound, `O=S(=O)([O-])[O-].[Zn+2]` ?
100

What Remaining activity value was documented for this compound, `[Cl][Ni][Cl]` ?
93

What Remaining activity value was documented for this compound, `[Cl][Fe]([Cl])[Cl]` ?
100

What Remaining activity value was documented for this compound, `[Cl][Cr]([Cl])[Cl]` ?
88

What Remaining activity value was documented for this compound, NN [hydrazine] ?
100

What Remaining activity value was documented for this compound, `O=C1NC(=O)C(c2ccccc2)(c2ccccc2)N1` ?
100

What Remaining activity value was documented for this compound, `O=S(=O)([O-])[O-].[Cu+2]` ?
100

What Remaining activity value was documented for this compound, `O=S(=O)([O-])[O-].[Mn+2]` ?
106

What Remaining activity value was documented for this compound, `O=C(O)c1cc[c]([Hg][Cl])cc1` ?
100

What Remaining activity value was documented for this compound, `O=C(O)c1cc(SSc2ccc([N+](=O)[O-])c(C(=O)O)c2)ccc1[N+](=O)[O-]` ?
97

What Remaining activity value was documented for this compound, `[Cl][Hg][Cl]` ?
64

What Remaining activity value was documented for this compound, CCC1(CC)C(=O)NC(=O)NC1=O [barbital sodium] ?
93

What Remaining activity value was documented for this compound, `[Cl][Cd][Cl]` ?
99

From: patent US20170166879A1
